Target: T1, mouse IL-2Rγ (mouse, UniProt P34902 23-263)
T1 construct: also called mo IL-2R
T1 sequence (looked up): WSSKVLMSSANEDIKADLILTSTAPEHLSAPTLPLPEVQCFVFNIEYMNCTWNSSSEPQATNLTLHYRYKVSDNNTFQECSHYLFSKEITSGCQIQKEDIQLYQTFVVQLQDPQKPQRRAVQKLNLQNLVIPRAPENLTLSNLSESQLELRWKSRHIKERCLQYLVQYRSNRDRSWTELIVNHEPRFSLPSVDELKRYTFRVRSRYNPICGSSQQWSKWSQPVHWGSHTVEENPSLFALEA
Test: SPR off-rate ranking, periplasmic extract on immobilised protein
measured_attribute: koff (s⁻¹)
Could you give me the number in s⁻¹? Just the number is fine.

Req: Requested field: koff. Item: FJ1427_P035MP04A06 (VHH, VHH in periplasmic extract; also called clone nr) VHH: QVQLVESGGGLVQPGGSLRLSCAASGRTLSRYAMGWFRQAPGKEREFVTANSWGGDTYYADSVQGRFTFSRDNAKNTVYLQMNSLQPEDTAVYYCAAAPTSFATTAYSSSNSYAYWGQGTQVTVSS
Resp: 0.113

Req: Thanks! And FJ1427_P035MP04B09 (VHH, VHH in periplasmic extract; also called clone nr) VHH: QVQLVESGGGLVQAGGSLRLSCAASGRTLSRYAMGWFRQAPGKEREFVTANSWGGDTYYADSVQGRFTFSRDNAKNTVYLQMNSLQPEDTAVYYCAAAPTSFATTAYSSSNSYAYWGQGTQVTVSS ?
Resp: 0.122
